Provenance of the data: patent US5985910A

Biological target: estrogen receptor (Homo sapiens)
Sequence (P03372 whole entry): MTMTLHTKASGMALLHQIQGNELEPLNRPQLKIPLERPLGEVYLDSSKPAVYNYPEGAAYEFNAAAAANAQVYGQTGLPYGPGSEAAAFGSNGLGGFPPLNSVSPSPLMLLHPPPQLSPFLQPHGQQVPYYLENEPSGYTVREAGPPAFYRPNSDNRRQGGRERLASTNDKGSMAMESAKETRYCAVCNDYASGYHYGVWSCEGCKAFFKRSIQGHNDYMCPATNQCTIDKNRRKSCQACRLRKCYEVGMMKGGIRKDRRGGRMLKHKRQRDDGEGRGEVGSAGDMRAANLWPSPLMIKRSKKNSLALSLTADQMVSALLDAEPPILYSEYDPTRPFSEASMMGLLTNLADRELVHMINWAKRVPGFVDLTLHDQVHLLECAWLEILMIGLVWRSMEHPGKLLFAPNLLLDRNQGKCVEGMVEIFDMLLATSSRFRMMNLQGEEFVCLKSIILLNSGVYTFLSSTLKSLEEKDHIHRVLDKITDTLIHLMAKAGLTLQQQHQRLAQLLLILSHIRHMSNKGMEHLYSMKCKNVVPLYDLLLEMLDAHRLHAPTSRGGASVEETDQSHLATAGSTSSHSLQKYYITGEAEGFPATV
Assay: 2X VIT ERE Transfection (luciferase) Assay in CHO cells
Assay type: cell-based
Set-up: expressed in transfected cells; host or cells: Chinese Hamster Ovary (CHO) cells, stably transfected
Conditions: 1 uM compound + 1 nM 17β-estradiol, 24 h (antagonism)
Assay Readout: % Activation with 1 nM 17β-estradiol (luciferase)

> print(dat)
                                   compound  result
1  Cc1c(-c2ccc(O)cc2)n(Cc2ccc(/C=C/C(=O)N3CCCC3)cc2)c2ccc(O)cc12 [Example 9]      8%
2  CCCCN(CCCC)C(=O)/C=C/c1ccc(Cn2c(-c3ccc(O)cc3)c(C)c3cc(O)ccc32)cc1 [Example 11]     12%
3  CCCCN(C)C(=O)/C=C/c1ccc(Cn2c(-c3ccc(O)cc3)c(C)c3cc(O)ccc32)cc1 [Example 12]     24%
4  Cc1c(-c2ccc(O)cc2)n(Cc2ccc(/C=C/C(=O)NC(C)(C)C)cc2)c2ccc(O)cc12 [Example 8]     78%
5  Cc1c(-c2ccc(O)cc2)n(Cc2ccc(/C=C/C(=O)N3CCOCC3)cc2)c2ccc(O)cc12 [Example 13]     17%
6  CNC(=O)/C=C/c1ccc(Cn2c(-c3ccc(O)cc3)c(C)c3cc(O)ccc32)cc1 [Example 15]     31%
7  Cc1c(-c2ccc(O)cc2)n(Cc2ccc(/C=C/C(=O)N(C)C)cc2)c2ccc(O)cc12 [Example 10]      2%
8  Cc1c(-c2ccc(O)cc2)n(Cc2ccc(/C=C/C(N)=O)cc2)c2ccc(O)cc12 [Example 14]     57%
9  CCN(CC)C(=O)/C=C/c1ccc(Cn2c(-c3ccc(O)cc3)c(C)c3cc(O)ccc32)cc1 [Example 7]      8%

* * *

System: Ishikawa cells
Assay: Ishikawa Cell Alkaline Phosphatase Assay
Type: cell-based, human
Details: compound alone, 48 h; percent of response related to 1 nM 17β-estradiol
Experimental: Ishikawa Cell Alkaline Phosphatase Assay Cell Maintenance and Treatment […] Absorbance and slope calculations were made using the KineticCalc Application program (Bio-Tek Instruments, Inc., Winooski, Vt.). Results are expressed as the mean +/-S.D. of the rate of enzyme reaction (slope) averaged over the linear portion of the kinetic reaction curve (optical density readings every 5 minutes for 30 minutes absorbance reading). […]
Readings of % Activation (alkaline phosphatase) for the listed compounds
Assay Readout: % Activation (alkaline phosphatase)

> print(dat)
                              sample.smiles                        assay.readout  result
1  Cc1c(-c2ccc(O)cc2)n(Cc2ccc(/C=C/C(N)=O)cc2)c2ccc(O)cc12  % Activation (alkaline phosphatase)      2%
2  CNC(=O)/C=C/c1ccc(Cn2c(-c3ccc(O)cc3)c(C)c3cc(O)ccc32)cc1  % Activation (alkaline phosphatase)      0%
3  CC/C(=C(\c1ccccc1)c1ccc(OCCN(C)C)cc1)c1ccccc1  % Activation (alkaline phosphatase)      0%
